Tested on: NCI-H460 tumor-bearing mice (lung cancer)
PROCEDURE TEXT: Biodistribution: lutetium accumulation in tumor, plasma and healthy tissues by ICP-MS
Assay type: in vivo
EXPERIMENTAL CONTEXT: 0.5 mg/kg lutetium conjugate; plasma; 24 h
The label depends only on % ID/g uptake, Plasma, 24 h: Fulfilled if it is at least 2 % ID/g, Not fulfilled if it is smaller.

Study these solved cases before continuing.
CCNC(=O)c1nnc(-c2cc(C(C)C)c(O)cc2O)n1-c1ccc(CN2CCN(C(=O)CCNC(=O)[C@@H](CCC(=O)N3CCN(Cc4ccc(-n5c(C(=O)NCC)nnc5-c5cc(C(C)C)c(O)cc5O)cc4)CC3)NC(=O)CCNC(=O)[C@@H](CCC(=O)O)NC(=O)[C@@H](CCC(=O)O)NC(=O)[C@@H](CCC(=O)O)NC(=O)COCCOCCNC(=O)CC[C@H](C(=O)O)N3CCN4CCN5CCN(CC3)CC(=O)[O][Lu]([O]C(=O)C5)[O]C(=O)C4)CC2)cc1 [T4] ... Not fulfilled
CCNC(=O)c1nnc(-c2cc(C(C)C)c(O)cc2O)n1-c1ccc(OC2CCN(C(=O)CCNC(=O)[C@@H](CCC(=O)N3CCC(Oc4ccc(-n5c(C(=O)NCC)nnc5-c5cc(C(C)C)c(O)cc5O)cc4)CC3)NC(=O)CCNC(=O)[C@@H](CCC(=O)O)NC(=O)[C@@H](CCC(=O)O)NC(=O)[C@@H](CCC(=O)O)NC(=O)COCCOCCNC(=O)[C@H](CCCCNC(=O)CC[C@H](C(=O)O)N(CC)CCN3CCN4CCN(C)CC(=O)[O][Lu]([O]C(=O)C4)[O]C(=O)C3)NC(=O)CCCc3ccc(I)cc3)CC2)cc1 [T12] ... Fulfilled
CCNC(=O)c1nnc(-c2cc(C(C)C)c(O)cc2O)n1-c1ccc2c(ccn2CCC2CCN(C(=O)CC[C@H](NC(=O)CC[C@H](C(=O)O)N3CCN4CCN5CCN(CC3)CC(=O)[O][Lu]([O]C(=O)C5)[O]C(=O)C4)C(=O)N3CCC(CCn4ccc5cc(-n6c(C(=O)NCC)nnc6-c6cc(C(C)C)c(O)cc6O)ccc54)CC3)CC2)c1 [T10] ... Fulfilled
CCNC(=O)c1nnc(-c2cc(C(C)C)c(O)cc2O)n1-c1ccc(CN2CCN(C(=O)CC[C@H](NC(=O)CCNC(=O)[C@@H](CCC(=O)O)NC(=O)[C@@H](CCC(=O)O)NC(=O)[C@@H](CCC(=O)O)NC(=O)COCCOCCNC(=O)CC[C@H](C(=O)O)N3CCN4CCN5CCN(CC3)CC(=O)[O][Lu]([O]C(=O)C5)[O]C(=O)C4)C(=O)N3CCN(Cc4ccc(-n5c(C(=O)NCC)nnc5-c5cc(C(C)C)c(O)cc5O)cc4)CC3)CC2)cc1 [T5] ... Not fulfilled
CCNC(=O)c1nnc(-c2cc(C(C)C)c(O)cc2O)n1-c1ccc2c(ccn2CCC2CCN(C(=O)CCNC(=O)[C@@H](CCC(=O)O)NC(=O)[C@@H](CCC(=O)O)NC(=O)[C@@H](CCC(=O)O)NC(=O)COCCOCCNC(=O)[C@H](CCCCNC(=O)CC[C@H](C(=O)O)N3CCN4CCN5CCN(CC3)CC(=O)[O][Lu]([O]C(=O)C5)[O]C(=O)C4)NC(=O)CCCc3ccc(I)cc3)CC2)c1 [T7] ... Fulfilled
CCNC(=O)c1nnc(-c2cc(C(C)C)c(O)cc2O)n1-c1ccc(CN2CCN(C(=O)CCNC(=O)[C@@H](CCC(=O)N3CCN(Cc4ccc(-n5c(C(=O)NCC)nnc5-c5cc(C(C)C)c(O)cc5O)cc4)CC3)NC(=O)CCNC(=O)[C@@H](CCC(=O)O)NC(=O)[C@@H](CCC(=O)O)NC(=O)[C@@H](CCC(=O)O)NC(=O)COCCOCCNC(=O)[C@H](Cc3ccccc3)NC(=O)CNC(=O)CNC(=O)CC[C@H](C(=O)O)N3CCN4CCN5CCN(CC3)CC(=O)[O][Lu]([O]C(=O)C5)[O]C(=O)C4)CC2)cc1 [T8] ... Not fulfilled

Input line: Check this molecule for % ID/g uptake, Plasma, 24 h at or above 2 % ID/g: CCNC(=O)c1nnc(-c2cc(C(C)C)c(O)cc2O)n1-c1ccc(OC2CCN(C(=O)CCNC(=O)[C@@H](CCC(=O)N3CCC(Oc4ccc(-n5c(C(=O)NCC)nnc5-c5cc(C(C)C)c(O)cc5O)cc4)CC3)NC(=O)CC[C@H](C(=O)O)N3CCN4CCN5CCN(CC3)CC(=O)[O][Lu]([O]C(=O)C5)[O]C(=O)C4)CC2)cc1 [T6]
Output line: Not fulfilled

Input line: Please do the same for CCNC(=O)c1nnc(-c2cc(C(C)C)c(O)cc2O)n1-c1ccc(CN2CCN(C(=O)CCNC(=O)[C@@H](CCC(=O)N3CCN(Cc4ccc(-n5c(C(=O)NCC)nnc5-c5cc(C(C)C)c(O)cc5O)cc4)CC3)NC(=O)CCNC(=O)[C@@H](CCC(=O)O)NC(=O)[C@@H](CCC(=O)O)NC(=O)[C@@H](CCC(=O)O)NC(=O)COCCOCCNC(=O)CNC(=O)[C@H](CCCCN)NC(=O)CNC(=O)CC[C@H](C(=O)O)N3CCN4CCN5CCN(CC3)CC(=O)[O][Lu]([O]C(=O)C5)[O]C(=O)C4)CC2)cc1 [T9] as well.
Output line: Fulfilled

Input line: Please do the same for CCNC(=O)c1nnc(-c2cc(C(C)C)c(O)cc2O)n1-c1ccc(OC2CCN(C(=O)CCNC(=O)[C@@H](CCC(=O)O)NC(=O)[C@@H](CCC(=O)O)NC(=O)[C@@H](CCC(=O)O)NC(=O)COCCOCCNC(=O)[C@H](CCCCNC(=O)CC[C@H](C(=O)O)N3CCN4CCN5CCN(CC3)CC(=O)[O][Lu]([O]C(=O)C5)[O]C(=O)C4)NC(=O)CCCc3ccc(I)cc3)CC2)cc1 [T11] as well.
Output line: Not fulfilled
